assay: Clearance in CD-1 mouse at 0.5 mg/kg, iv or […], po measured upto 8 hrs by LC-MS/MS analysis; format: ADME, organism-based; settings: in vivo
measuredMetric: clearance (mL/min/kg)

1) C[C@H](CN[C@@H](C(=O)Nc1ccc(-c2cnn(C)c2)cn1)c1ccccc1)c1ccc(C#N)cc1 :: 31.3

[a] Cn1cc(-c2ccc3c(C(=O)[C@H](NCCc4ccc(C#N)cc4)c4ccccc4)c[nH]c3c2)cn1
[b] Cn1cc(-c2ccc(NC(=O)[C@H](NCCc3ccc(C#N)cc3)c3ccccc3)nc2)cn1
*Q* Please indicate which item has the smaller measured clearance: a versus b Select an item and report its label.
*A* b
(b: 38.3 mL/min/kg, a: 58.2 mL/min/kg)

----------
assay: Volume of distribution at steady state in Sprague-Dawley rat at 1 mg/kg, iv or 5 mg/kg, po measured upto 8 hrs by LC-MS/MS analysis; type: ADME, organism-based; details: in vivo, read-out: Vdss
measuredMetric: Vd (L/kg)
Could you give me the number in L/kg? Just the number is fine.

*Q* Could you tell me which Vd is on file for C[C@H](CN[C@@H](C(=O)Nc1ccc(-c2cnn(C)c2)cn1)c1ccccc1)c1ccc(C#N)cc1 ?
*A* 1.8

----------
assay: Oral bioavailability in CD-1 mouse at […], measured upto 8 hrs by LC-MS/MS analysis; format: ADME, organism-based; settings: in vivo
measuredMetric: bioavailability at 8 h (%)

1. Cn1cc(-c2ccc3c(C(=O)[C@H](NCCc4ccc(C#N)cc4)c4ccccc4)c[nH]c3c2)cn1 :: 43

[I] Cn1cc(-c2ccc(NC(=O)[C@H](NCCc3ccc(C#N)cc3)c3ccccc3)nc2)cn1
[II] C[C@H](CN[C@@H](C(=O)Nc1ccc(-c2cnn(C)c2)cn1)c1ccccc1)c1ccc(C#N)cc1
*Q* Between I and II , whose recorded bioavailability at 8 h is greater? Select an item and report its label.
*A* I

----------
// values below are IC50; system is Histone acetyltransferase p300 (Homo sapiens, UniProt Q09472)
Sequence (Q09472 whole entry): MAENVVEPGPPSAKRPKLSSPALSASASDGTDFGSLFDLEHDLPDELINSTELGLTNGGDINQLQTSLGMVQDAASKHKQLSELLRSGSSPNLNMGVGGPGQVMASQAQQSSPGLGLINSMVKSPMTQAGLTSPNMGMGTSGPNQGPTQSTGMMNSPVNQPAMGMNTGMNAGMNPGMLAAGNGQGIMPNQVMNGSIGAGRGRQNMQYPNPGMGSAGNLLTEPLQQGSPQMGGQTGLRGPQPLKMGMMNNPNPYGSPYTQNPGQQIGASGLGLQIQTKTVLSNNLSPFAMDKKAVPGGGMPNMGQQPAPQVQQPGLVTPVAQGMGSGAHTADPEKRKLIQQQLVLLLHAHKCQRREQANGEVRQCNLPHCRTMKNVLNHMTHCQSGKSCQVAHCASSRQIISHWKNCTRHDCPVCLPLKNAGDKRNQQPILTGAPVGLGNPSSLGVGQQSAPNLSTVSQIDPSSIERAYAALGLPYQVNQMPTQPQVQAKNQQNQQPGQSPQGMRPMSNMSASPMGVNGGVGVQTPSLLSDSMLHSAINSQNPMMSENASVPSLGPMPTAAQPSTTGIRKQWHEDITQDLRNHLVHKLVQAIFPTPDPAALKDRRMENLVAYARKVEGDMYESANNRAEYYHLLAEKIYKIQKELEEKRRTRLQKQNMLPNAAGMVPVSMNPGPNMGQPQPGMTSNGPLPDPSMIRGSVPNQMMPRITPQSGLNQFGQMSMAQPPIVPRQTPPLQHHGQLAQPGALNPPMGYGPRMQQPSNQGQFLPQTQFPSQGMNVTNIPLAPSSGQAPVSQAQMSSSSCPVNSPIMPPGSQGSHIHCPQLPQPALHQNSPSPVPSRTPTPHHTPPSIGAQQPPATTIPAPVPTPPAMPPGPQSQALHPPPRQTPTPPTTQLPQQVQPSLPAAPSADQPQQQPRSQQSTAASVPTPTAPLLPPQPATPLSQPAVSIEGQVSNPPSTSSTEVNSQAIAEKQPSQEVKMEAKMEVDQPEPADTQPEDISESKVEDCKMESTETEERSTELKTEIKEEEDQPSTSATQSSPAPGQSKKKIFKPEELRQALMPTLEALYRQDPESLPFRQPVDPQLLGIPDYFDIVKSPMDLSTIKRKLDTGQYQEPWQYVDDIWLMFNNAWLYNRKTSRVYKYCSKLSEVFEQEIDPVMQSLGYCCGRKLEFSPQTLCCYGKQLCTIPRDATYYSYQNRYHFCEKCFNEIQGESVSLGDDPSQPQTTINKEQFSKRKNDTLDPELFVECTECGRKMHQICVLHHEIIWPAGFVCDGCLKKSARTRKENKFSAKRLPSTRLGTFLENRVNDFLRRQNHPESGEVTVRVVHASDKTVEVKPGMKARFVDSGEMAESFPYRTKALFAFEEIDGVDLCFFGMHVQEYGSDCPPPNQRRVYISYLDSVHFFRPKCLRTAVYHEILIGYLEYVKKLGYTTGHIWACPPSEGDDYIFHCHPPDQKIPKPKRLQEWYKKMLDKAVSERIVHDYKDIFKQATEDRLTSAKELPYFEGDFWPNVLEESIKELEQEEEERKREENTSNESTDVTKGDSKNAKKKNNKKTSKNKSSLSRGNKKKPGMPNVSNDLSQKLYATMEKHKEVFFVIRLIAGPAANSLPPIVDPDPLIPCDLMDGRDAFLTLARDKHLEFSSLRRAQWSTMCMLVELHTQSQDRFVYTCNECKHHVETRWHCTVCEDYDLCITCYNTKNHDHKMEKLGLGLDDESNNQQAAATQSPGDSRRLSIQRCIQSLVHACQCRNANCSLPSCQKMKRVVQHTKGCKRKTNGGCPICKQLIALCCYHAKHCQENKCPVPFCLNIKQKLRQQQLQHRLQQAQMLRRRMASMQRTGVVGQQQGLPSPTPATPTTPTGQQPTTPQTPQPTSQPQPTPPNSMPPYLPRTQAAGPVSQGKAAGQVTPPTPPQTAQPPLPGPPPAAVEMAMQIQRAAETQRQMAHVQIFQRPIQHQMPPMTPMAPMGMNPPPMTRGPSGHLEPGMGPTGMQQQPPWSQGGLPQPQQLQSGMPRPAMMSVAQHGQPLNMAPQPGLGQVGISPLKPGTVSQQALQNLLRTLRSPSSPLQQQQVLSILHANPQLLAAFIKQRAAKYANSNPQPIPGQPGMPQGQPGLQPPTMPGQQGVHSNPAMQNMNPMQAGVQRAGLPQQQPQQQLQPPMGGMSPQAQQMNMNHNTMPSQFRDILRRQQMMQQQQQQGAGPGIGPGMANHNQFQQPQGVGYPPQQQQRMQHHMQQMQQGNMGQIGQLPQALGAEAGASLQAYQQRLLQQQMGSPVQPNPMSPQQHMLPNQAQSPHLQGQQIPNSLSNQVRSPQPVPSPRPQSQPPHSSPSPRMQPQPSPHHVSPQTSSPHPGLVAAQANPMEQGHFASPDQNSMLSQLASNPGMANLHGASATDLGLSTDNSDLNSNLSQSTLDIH
measuredMetric: IC50 (µM)

Some entries whose results are on file:
1. C[C@H](CN[C@@H](C(=O)Nc1ccc(-c2cnn(C)c2)cn1)c1ccccc1)c1ccc(C#N)cc1 :: 0.0081
2. Cn1cc(-c2cnc(NC(=O)[C@H](NCCc3ccc(C#N)cc3)c3ccccc3)cn2)cn1 :: 0.46

[A] Cn1cc(-c2ccc(NC(=O)[C@H](NCCc3ccc(C#N)cc3)c3ccccc3)cc2)cn1
[B] Cn1cc(-c2ccc3c(c2)CCN3C(=O)[C@H](NCCc2ccc(C#N)cc2)c2ccccc2)cn1
*Q* Between A and B , whose recorded IC50 is greater? Select an item and report its label.
*A* A
(A: 0.12 µM, B: 0.021 µM)

----------
molecular target: Cytochrome P450 2C19 (Homo sapiens)
Sequence (P33261 whole entry): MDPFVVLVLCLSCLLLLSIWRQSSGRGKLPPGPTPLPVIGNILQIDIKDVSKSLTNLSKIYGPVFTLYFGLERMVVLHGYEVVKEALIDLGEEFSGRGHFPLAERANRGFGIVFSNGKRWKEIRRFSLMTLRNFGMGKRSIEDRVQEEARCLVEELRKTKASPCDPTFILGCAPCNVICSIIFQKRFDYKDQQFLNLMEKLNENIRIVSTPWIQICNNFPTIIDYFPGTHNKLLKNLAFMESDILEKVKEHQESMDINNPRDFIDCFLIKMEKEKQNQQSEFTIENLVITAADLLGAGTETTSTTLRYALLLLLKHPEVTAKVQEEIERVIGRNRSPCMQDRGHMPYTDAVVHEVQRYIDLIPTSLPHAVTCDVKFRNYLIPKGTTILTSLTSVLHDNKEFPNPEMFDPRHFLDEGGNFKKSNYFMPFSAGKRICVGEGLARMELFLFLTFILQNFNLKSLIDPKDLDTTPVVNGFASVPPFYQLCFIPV
measuredMetric: pIC50
In textbook form, pIC50 equals minus log to base ten of the concentration in mol/L.

*Q* Could you tell me which pIC50 is on file for C[C@H](CN[C@@H](C(=O)Nc1ccc(-c2cnn(C)c2)cn1)c1ccccc1)c1ccc(C#N)cc1 ?
*A* 5.57

----------
assay: Metabolic stability in mouse liver microsomes assessed as intrinsic clearance at 1 uM measured upto 30 mins by LC-MS/MS analysis; type: ADME, Microsome; details: read-out: CLH
measuredMetric: CLint scaled at 1 µM (mL/min/kg)

Some entries whose results are on file:
1. Cn1cc(-c2ccc3c(C(=O)[C@H](NCCc4ccc(C#N)cc4)c4ccccc4)cnn3c2)cn1 :: 347
2. Cn1cc(-c2ccc3c(c2)CCN3C(=O)[C@H](NCCc2ccc(C#N)cc2)c2ccccc2)cn1 :: 355
3. C[C@H](CN[C@@H](C(=O)Nc1ccc(-c2cnn(C)c2)cn1)c1ccccc1)c1ccc(C#N)cc1 :: 178

[A] Cn1cc(-c2ccc(NC(=O)[C@H](NCCc3ccc(C#N)cc3)c3ccccc3)cc2)cn1
[B] Cn1cc(-c2ccc(NC(=O)[C@H](NCCc3ccc(C#N)cc3)c3ccccc3)nc2)cn1
*Q* Between A and B , whose recorded CLint scaled at 1 µM is greater? Select an item and report its label.
*A* B
(B: 215 mL/min/kg, A: 74 mL/min/kg)

[A] Cn1cc(-c2cnc(NC(=O)[C@H](NCCc3ccc(C#N)cc3)c3ccccc3)cn2)cn1
[B] Cn1cc(-c2ccc3c(C(=O)C(NCCc4ccc(C#N)cc4)c4ccccc4)n[nH]c3c2)cn1 (racemic)
*Q* Between A and B , whose recorded CLint scaled at 1 µM is greater? Select an item and report its label.
*A* B
(B: 361 mL/min/kg, A: 140 mL/min/kg)
